# TGI listing for each entry below
System: HOP-62 NSCLC
Experiment: NCI tumour cell line growth inhibition, 48 h
measuredProperty: TGI (µM)

* CC1=C[C@H]2C[C@H](C)[C@H]3CC[C@H](C)[C@]4(C1)C(=O)C(O)=C(C)C(=O)[C@@]324 | 83.6
* Cc1c(C(N)=O)sc2c1c(=O)n(Cc1ccccc1)c1nnc(-c3ccc(Br)cc3)n21 | 14.4
* COc1ccc2c(c1)c(=O)c1c(NCCN(C)C)ccc3nnn2c31 | 15.4
* C[C@@H]1COCCN1c1cc(C2([S@@](C)(=N)=O)CC2)nc(-c2ccnc3[nH]ccc23)n1 | 63.6
